- Test system: JC polyomavirus
- experiment: Antiviral activity against JC polyomavirus infected in […] G144 […] cells assessed as reduction in late viral protein and viral capsid protein VP1 incubated for 72 hrs by branched DNA assay
- Assay type: functional, organism-based
pEC50: −log10 of the molar value.
The label depends only on pEC50: TRUE if it is at least 5, FALSE if it is smaller.

Worked examples follow.
structureString: COc1ccccc1-c1nc2ccncc2s1
classAssignment: TRUE
//
structureString: c1ccc(-c2nn3cnnc3s2)c(OCCC2CCOCC2)c1
classAssignment: FALSE
//
structureString: c1ccc(Oc2ncccc2-c2nn3cnnc3s2)cc1
classAssignment: FALSE
//
structureString: COc1ccccc1-c1nn2cnnc2s1
classAssignment: FALSE
//
structureString: c1ccc(Oc2ncccc2-c2nc3ccncc3s2)cc1
classAssignment: TRUE

// next entry
Ask: Dear colleague, could you confirm whether CC(=O)Nc1ccc(Oc2ccccc2-c2nc3ccncc3s2)cc1 has pEC50 at or above 5?
Result: FALSE

* * *

- experiment: Inhibition of helicase activity of BK polyomavirus LTAg (E265 to D629 residues) expressed in Escherichia coli using Cy5/BHQ3 dsDNA pre-incubated for 20 mins and measured after 120 to 180 mins by fluorescence based assay
- Parameters: species or system Betapolyomavirus hominis
measuredParameter: pIC50
The meaning of pIC50 here: minus log10 of the concentration in molar units.

structureString: c1ccc(Oc2ccccc2-c2nc3ccncc3s2)cc1
recordedMeasurement: 4.99

Ask: Fill in the blank: the reported pIC50 of COc1ccccc1-c1nn2cnnc2s1 is ____.
Result: 4.54

* * *

- targetOrTestSystem: Large T antigen (JC polyomavirus)
- Sequence (P03072 whole entry): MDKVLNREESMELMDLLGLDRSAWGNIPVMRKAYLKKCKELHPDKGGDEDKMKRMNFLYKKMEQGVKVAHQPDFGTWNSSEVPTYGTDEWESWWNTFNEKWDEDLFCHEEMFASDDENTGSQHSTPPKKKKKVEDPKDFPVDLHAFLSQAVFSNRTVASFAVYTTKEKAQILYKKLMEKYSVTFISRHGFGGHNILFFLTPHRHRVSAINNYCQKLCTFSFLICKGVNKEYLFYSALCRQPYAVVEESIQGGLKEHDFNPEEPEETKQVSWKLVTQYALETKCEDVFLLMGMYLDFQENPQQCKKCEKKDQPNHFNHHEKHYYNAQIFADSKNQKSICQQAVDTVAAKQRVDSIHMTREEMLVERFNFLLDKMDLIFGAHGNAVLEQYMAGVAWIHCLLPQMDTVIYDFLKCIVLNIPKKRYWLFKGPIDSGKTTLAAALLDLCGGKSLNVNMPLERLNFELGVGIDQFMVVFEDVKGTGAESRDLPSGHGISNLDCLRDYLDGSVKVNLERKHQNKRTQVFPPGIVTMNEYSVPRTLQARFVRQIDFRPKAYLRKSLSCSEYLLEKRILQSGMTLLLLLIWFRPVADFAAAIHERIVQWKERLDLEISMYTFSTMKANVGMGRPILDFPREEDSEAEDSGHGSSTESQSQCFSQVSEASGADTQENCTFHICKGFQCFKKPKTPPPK
Lab note - cut at 6 µM for IC50: YES if strictly below, NO if not.

As a guide, the following entries are already answered.
structureString: Oc1ccccc1-c1nc2ccncc2s1
targetOrTestSystem: Large T antigen (JC polyomavirus)
classAssignment: NO

structureString: N#CCCCOc1ccccc1-c1nn2cnnc2s1
targetOrTestSystem: Large T antigen (JC polyomavirus)
classAssignment: NO

structureString: CCOc1ccccc1-c1nn2cnnc2s1
targetOrTestSystem: Large T antigen (JC polyomavirus)
classAssignment: NO

structureString: c1ccc(Oc2ccncc2-c2nn3cnnc3s2)cc1
targetOrTestSystem: Large T antigen (JC polyomavirus)
classAssignment: YES

structureString: c1ccc(-c2nc3ccncc3s2)c(OCCC2CCOCC2)c1
targetOrTestSystem: Large T antigen (JC polyomavirus)
classAssignment: NO

structureString: c1cc2c(c(-c3nn4cnnc4s3)c1)OCC2
targetOrTestSystem: Large T antigen (JC polyomavirus)
classAssignment: NO

structureString: c1ccc(Oc2ncccc2-c2nn3cnnc3s2)cc1
targetOrTestSystem: Large T antigen (JC polyomavirus)
classAssignment: NO

structureString: CC(=O)Nc1ccc(Oc2ccccc2-c2nc3ccncc3s2)cc1
targetOrTestSystem: Large T antigen (JC polyomavirus)
classAssignment: YES

Ask: Is 6 µM strictly greater than the compound's reported IC50? compound: c1ccc(Oc2ccccc2-c2nn3cnnc3s2)cc1
Result: YES

Ask: # iterate: c1ccc(-c2nn3cnnc3s2)c(OCCN2CCOCC2)c1
Result: NO

Ask: Also check c1ccc(Oc2ccccc2-c2nc3ccncc3s2)cc1
Result: NO

These data points were gathered from ChEMBL document CHEMBL4428043.
